FYI, the data here is from patent US8263589B2.

molecular target: assembled tsyn (core aggregation domain of α-synuclein, amino acids 31-109) (Homo sapiens, UniProt P37840); construct: The core aggregation domain of α-synuclein (amino acids 31-109) was expressed with an N-terminal polyhistidine tag; polyhistidine (N); made in house; host or cells: E. coli; assay: Fluorescence assay of disruption of assembled tsyn (thioflavine T / primulin); type: biochemical; conditions: assembled tsyn, thioflavine T 5.0 μM; read-out: P50 (mean), effect of fluorophore concentration
measurement.name: IC50 (µM)
Give bare numbers, in µM.

compound="CN(C)c1ccc2nc3ccc(N(C)C)cc3[s+]c2c1 [MTC, methyl-thioninium chloride]" unit_text=µM value=20.2

**Q:** I have this compound here, CCN(CC)c1ccc2nc3ccc(N(CC)CC)cc3[s+]c2c1 [ETC, Ethyl-thioninium chloride] , and I need its recorded IC50.
**A:** 17.6

###

molecular target: assembled tsyn (core aggregation domain of α-synuclein, amino acids 31-109) (Homo sapiens); construct: The core aggregation domain of α-synuclein (amino acids 31-109) was expressed with an N-terminal polyhistidine tag; polyhistidine (N); made in house; host or cells: E. coli; assay: Fluorescence assay of disruption of assembled tsyn (thioflavine T / primulin); type: biochemical; conditions: tsyn-13, thioflavine T 1 μM; assembled 20 h with heparin, compound 1 h; read-out: P50 for inhibition of α-synuclein-dependent fluorescence
For each of the molecules below, state its IC50.
Give bare numbers, in µM.

molecule="CN(C)c1ccc2nc3ccc(N(C)C)cc3[s+]c2c1 [MTC, methyl-thioninium chloride]" measurement_name=IC50 value=18.5

**Q:** I have this molecule here, CCN(CC)c1ccc2nc3ccc(N(CC)CC)cc3[s+]c2c1 [ETC, Ethyl-thioninium chloride] , and I need its recorded IC50.
**A:** 30.3

###

molecular target: assembled tsyn (core aggregation domain of α-synuclein, amino acids 31-109) (Homo sapiens, UniProt P37840); construct: The core aggregation domain of α-synuclein (amino acids 31-109) was expressed with an N-terminal polyhistidine tag; polyhistidine (N); made in house; host or cells: E. coli; assay: Fluorescence assay of disruption of assembled tsyn (thioflavine T / primulin); format: biochemical; details: P50 (μM) using primulin, tsyn-16 assembled with heparin (50 μg/ml), primulin 1 μM; mean ± SEM (n)
measurement.name: IC50

**Q:** I have this compound here, O=c1cc(-c2ccccc2)oc2cc(O)ccc12 [7-Hydroxy-flavone, reference compound] , and I need its recorded IC50.
**A:** > 50 µM

###

target: assembled tsyn (core aggregation domain of α-synuclein, amino acids 31-109) (Homo sapiens, UniProt P37840); construct: The core aggregation domain of α-synuclein (amino acids 31-109) was expressed with an N-terminal polyhistidine tag; polyhistidine (N); made in house; host or cells: E. coli; test: Fluorescence assay of disruption of assembled tsyn (thioflavine T / primulin); type: biochemical; settings: tsyn-16 assembled with heparin (50 μg/ml), primulin 1 μM; mean ± SEM (n); read-out: P50 (μM) using primulin
Friendly reminder: IC50 below 30 µM is Criterion met, at or above is Criterion not met.

// known answers, use as guide
compound="COc1cc(-c2oc3cc(O)ccc3c(=O)c2O)ccc1O [Geraldol, reference compound]" assigned_class="Criterion not met"
compound="CN(C)c1ccc2nc3ccc(N)cc3[s+]c2c1 [Azure A, reference compound]" assigned_class="Criterion met"
compound="CCN(CC)c1ccc2nc3ccc(N(CC)CC)cc3[s+]c2c1 [ETC, Ethyl-thioninium chloride]" assigned_class="Criterion met"
compound="COc1cc(O)c2c(=O)c(O)c(-c3ccc(O)c(O)c3)oc2c1 [Rhamnetin, reference compound]" assigned_class="Criterion not met"
compound="O=c1c(O)c(-c2cc(O)c(O)c(O)c2)oc2cc(O)ccc12 [Robinetin, reference compound]" assigned_class="Criterion met"

**Q:** Find out if reported IC50 for Cc1cc2nc3ccc(N(C)C)cc3[s+]c2cc1N [Tolonium chloride, Tolonium Chloride] is less than 30 µM
**A:** Criterion met

**Q:** Proceed to O=c1cc(-c2ccccc2)oc2cc(O)c(O)c(O)c12 [Baicalein, reference compound]
**A:** Criterion met
